// reported Kd for each item listed
- assaySystem: T1, GFP-9S library array, motif 4 ND N98Y;D124I (synthetic construct, N98Y;D124I)
- T1 chain: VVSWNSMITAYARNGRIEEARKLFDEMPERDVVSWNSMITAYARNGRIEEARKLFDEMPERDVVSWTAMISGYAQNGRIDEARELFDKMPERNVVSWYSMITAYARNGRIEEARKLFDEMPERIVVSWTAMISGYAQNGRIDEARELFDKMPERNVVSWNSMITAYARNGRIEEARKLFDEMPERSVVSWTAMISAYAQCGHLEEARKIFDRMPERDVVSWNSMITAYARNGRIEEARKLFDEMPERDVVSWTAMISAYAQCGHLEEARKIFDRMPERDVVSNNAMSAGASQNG
- protocolNotes: high-throughput RNA pulldown from lysate on Ni-NTA beads; HRP: 50 mM Tris pH 8, 150 mM NaCl, 1 mM beta-mercaptoethanol, 50 ug/ml BSA, 3 ug/ml yeast RNA, 0.5% heparin; ITC and FP: Tris pH 8, 200 mM KCl, 5% glycerol; MST: 50 mM Tris pH 8, 200 mM NaCl, 1 mM DTT, BSA, heparin, 0.05% Tween 20
- conditionInfo: tags: N-terminal His-eGFP; label: 5' IRDye 800CW
Only the number, expressed in nM, is required.

                            binder  measuredparameter  observed
0  AUUAUACGUGA (ssRNA) [IR-rpoA-U]                 Kd       340

Data request, read-out Kd, for AUUAAACGUGA (ssRNA) [IR-rpoA-A]
347
